IC50 for assorted compounds
- TESTED_SYSTEM: hERG channel (Homo sapiens, UniProt Q12809)
- Construct: expressed in transfected cells
- Sequence (Q12809 whole entry): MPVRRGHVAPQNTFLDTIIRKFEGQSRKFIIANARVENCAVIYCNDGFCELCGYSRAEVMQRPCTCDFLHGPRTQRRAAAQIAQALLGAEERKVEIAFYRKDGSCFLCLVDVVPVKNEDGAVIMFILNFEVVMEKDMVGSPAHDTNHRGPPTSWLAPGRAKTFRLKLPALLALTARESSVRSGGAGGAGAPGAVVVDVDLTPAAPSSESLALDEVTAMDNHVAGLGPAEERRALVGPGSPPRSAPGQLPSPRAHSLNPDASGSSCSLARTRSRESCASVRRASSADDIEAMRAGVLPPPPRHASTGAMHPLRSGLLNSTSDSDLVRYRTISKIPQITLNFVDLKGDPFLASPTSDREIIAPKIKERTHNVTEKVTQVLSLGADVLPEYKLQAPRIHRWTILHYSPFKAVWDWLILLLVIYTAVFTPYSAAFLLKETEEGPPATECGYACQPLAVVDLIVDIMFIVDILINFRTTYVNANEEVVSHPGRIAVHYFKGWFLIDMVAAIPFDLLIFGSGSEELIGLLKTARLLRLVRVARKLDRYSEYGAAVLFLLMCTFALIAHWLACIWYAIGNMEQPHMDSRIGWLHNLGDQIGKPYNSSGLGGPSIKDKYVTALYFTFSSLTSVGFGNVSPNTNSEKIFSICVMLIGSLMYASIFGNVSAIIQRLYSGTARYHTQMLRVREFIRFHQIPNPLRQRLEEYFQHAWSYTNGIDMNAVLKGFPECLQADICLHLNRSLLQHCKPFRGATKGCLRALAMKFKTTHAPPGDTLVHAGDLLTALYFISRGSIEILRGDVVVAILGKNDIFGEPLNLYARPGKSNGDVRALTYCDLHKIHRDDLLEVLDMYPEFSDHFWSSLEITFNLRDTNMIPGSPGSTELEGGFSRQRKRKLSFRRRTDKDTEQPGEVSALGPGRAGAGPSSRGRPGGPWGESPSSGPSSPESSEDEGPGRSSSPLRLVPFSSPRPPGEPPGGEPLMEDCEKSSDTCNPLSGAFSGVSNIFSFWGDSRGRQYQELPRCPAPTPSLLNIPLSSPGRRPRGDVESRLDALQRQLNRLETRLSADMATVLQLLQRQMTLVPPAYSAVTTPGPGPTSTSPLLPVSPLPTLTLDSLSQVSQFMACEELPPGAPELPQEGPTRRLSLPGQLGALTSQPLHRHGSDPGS
- METHOD_DESCRIPTION: hERG electrophysiology, automated whole-cell patch clamp (Patchliner)
- Type: cell-based
- PROTOCOL_CONDITIONS: hERG channel, whole-cell patch clamp

# COMPOUND, VALUE_REPORTED
records = [
    ("O=C1CN(C[C@@H]2CCN2)C[C@@H]2C[C@H](c3c(O)ccc(Cl)c3Cl)CN12 (single isomer, unassigned; isomer 1) [Compound 139]", "> 30 µM"),
    ("O=C1CN(c2ncn[nH]2)C[C@@H]2C[C@H](c3c(O)ccc(Cl)c3Cl)CN12 [Compound 175]", "> 30 µM"),
    ("C[C@H]1CC(=O)N2C[C@@H](c3c(O)ccc(Cl)c3Cl)C[C@H]2CN1C(=O)CO [Compound 94]", "> 30 µM"),
    ("C[C@H](C1CNC1)N1CC(=O)N2C[C@@H](c3c(O)ccc(Cl)c3Cl)C[C@H]2C1 (single isomer, unassigned; isomer 2) [Compound 138]", "> 30 µM"),
    ("CC(CO)(CO)N1CC(=O)N2C[C@@H](c3c(O)ccc(Cl)c3Cl)C[C@H]2C1 [Compound 162]", "> 30 µM"),
    ("O=C1C[C@H](CN2CC(O)C2)C[C@@H]2C[C@H](c3c(O)ccc(Cl)c3Cl)CN12 (single isomer, unassigned) [Compound 243]", "< 30 µM"),
    ("O=C1CC(O)(CO)C[C@@H]2C[C@H](c3c(O)ccc(Cl)c3Cl)CN12 (some centres unmarked) [Compound 220]", "> 30 µM"),
    ("O=C1O[C@@H](CCO)[C@@H]2C[C@H](c3c(O)ccc(Cl)c3Cl)CN12 (single isomer, unassigned) [Compound 271]", "< 30 µM"),
]

Data request: Entry under review: O=C1O[C@H]([C@H](O)CO)[C@@H]2C[C@H](c3c(O)ccc(Cl)c3Cl)CN12 (single isomer, unassigned) [Compound 263] . Reported IC50?
Data returned: > 30 µM

Data request: Entry under review: O=C(NCCO)N1CC(=O)N2C[C@@H](c3c(O)ccc(Cl)c3Cl)C[C@H]2C1 [Compound 104] . Reported IC50?
Data returned: > 30 µM

Data request: Entry under review: N[C@@H]1CC(=O)N2C[C@@H](c3c(O)ccc(Cl)c3Cl)C[C@H]2C1 (single isomer, unassigned) [Compound 190] . Reported IC50?
Data returned: > 30 µM

Data request: Entry under review: C[C@@H](O)CN1CC(=O)N2C[C@@H](c3c(O)ccc(Cl)c3Cl)C[C@H]2C1 (single isomer, unassigned; isomer 1) [Compound 150] . Reported IC50?
Data returned: > 30 µM

Data request: Entry under review: O=C1CN([C@H]2C[C@](O)(CO)C2)C[C@@H]2C[C@H](c3c(O)ccc(Cl)c3Cl)CN12 (single isomer, unassigned; isomer 1) [Compound 163] . Reported IC50?
Data returned: > 30 µM

Data request: Entry under review: O=C1CN(c2cc(CO)ccn2)C[C@@H]2C[C@H](c3c(O)ccc(Cl)c3Cl)CN12 [Compound 173] . Reported IC50?
Data returned: < 30 µM
